Origin of the recorded values: PubChem BioAssay (NCI)

Measured TGI, listed per entry.
# Tested on: K-562 leukemia
# Protocol: NCI tumour cell line growth inhibition, 48 h
Where a SMILES comes first, the peptide text is derived from it. The star is where a group is joined. Boc = CC(C)(C)OC(=O)*; OBn = c1ccc(CO*)cc1

These recorded examples may help you get a feel for the data.
1. O=C1NC2(CCCCC2)C2CCCCCC12 (configuration not stated) :: > 100 µM
2. Cc1cccc(C2=NC(C)(C)C(C)(C)N=C2c2cccc(C)n2)n1 :: > 100 µM
3. O=c1cc(N2CCCC2)[nH]c(=O)n1-c1cccc(C(F)(F)F)c1 :: > 100 µM
4. COc1cccc2c1C(=O)c1c(O)c3c(c(O)c1C2=O)C[C@@](O)(C(=O)CO)C[C@@H]3OC1C[C@H](N)[C@H](O)[C@H](C)O1 (some centres not stated) :: 3.18 µM
5. NS(=O)(=O)c1cccc(N=Cc2c(O)[nH]c3ccccc23)c1 :: > 25 µM
6. COc1cc(CC2c3cc(OC)c(OC)cc3CCN2C)c(Oc2cc3c(cc2OC)-c2c(O)c(OC)cc4c2C(C3)N(C)CC4)cc1OC (configuration not stated) :: > 100 µM
7. COc1cc(-c2nc3sc4c(c3c(=O)[nH]2)CCCCCC4)cc(OC)c1OC :: > 33.2 µM
8. CN1CC(C(=O)C2C(=O)c3ccccc3C2=O)C(=O)C(=O)C(C(=O)C2C(=O)c3ccccc3C2=O)C1 (configuration not stated) :: > 100 µM

Prompt line: May I ask what TGI has been recorded for CC#CC1/C(=C\C(=O)OC)CCCC1O (configuration not stated) ?
Response line: > 100 µM

Prompt line: Also need COC(=O)/C=C1\CCC(C)(C(=O)NS(=O)(=O)c2ccc(C)cc2)C1(C)C (configuration not stated) , thanks.
Response line: > 100 µM

Prompt line: Also need CC(NC(=O)C(NC(=O)OC(C)(C)C)C(C)C)C(=O)N1CCCC1C(=O)NCC(=O)NC(C(=O)NCC(=O)OCc1ccccc1)C(C)C (configuration not stated) (Boc-VAPGVG-OBn; configuration not given here) , thanks.
Response line: > 100 µM

Prompt line: Also need COc1cccc(/C=C/c2cnc3ccccc3n2)c1OC , thanks.
Response line: > 100 µM

----------
# Tested on: MOLT-4 leukemia
# Protocol: NCI tumour cell line growth inhibition, 48 h
Readout label: TGI

1) c1cn2cc(-c3ccc4cn[nH]c4c3)nc(Nc3ccc(N4CCOCC4)cc3)c2n1 :: > 100 µM
2) O=C(O)c1cc2cc(OCc3ccccc3)c(OCc3ccccc3)cc2[nH]1 :: > 100 µM

Prompt line: May I ask what TGI has been recorded for CC[C@H](C)[C@H]1NC(=O)[C@@H](NC(=O)[C@@H](CC(C)C)N(C)CC2CCCN2C(=O)C(C)=O)[C@@H](C)OC(=O)[C@H](Cc2ccc(OC)cc2)N(C)C(=O)C2CCCN2C(=O)[C@H](CC(C)C)NC(=O)[C@@H](C)C(=O)[C@H](C(C)C)OC(=O)C[C@@H]1O (stereo partly drawn) ?
Response line: 0.00608 µM

Prompt line: Also need COc1cccc(Cc2c3cc(OC)ccc3cc[n+]2C)c1 , thanks.
Response line: > 100 µM

----------
# Test system: PC-3 prostate
# Protocol: NCI tumour cell line growth inhibition, 48 h
Where a SMILES comes first, the peptide text is derived from it. The star is where a group is joined. Cbz = O=C(OCc1ccccc1)*; OBn = c1ccc(CO*)cc1
Measured TGI, listed per entry.
State the answer as a number, implicitly in µM.

These recorded examples may help you get a feel for the data.
1. O=C1C=C(Br)c2c(Br)sc(Br)c21 :: 26.4
2. COc1ccc2c(c1)N=C1CSC(c3ccccc3Cl)N1C2 (stereo not given) :: 58.5

Prompt line: May I ask what TGI has been recorded for COc1cccc2c1C(=O)c1c(O)c3c(c(O)c1C2=O)C[C@@](O)(C(=O)CO)C[C@@H]3OC1C[C@H](N)[C@H](O)[C@H](C)O1 (stereo not given in full) ?
Response line: 1.22

Prompt line: Also need CC(C)NC(=O)OCc1c(COC(=O)NC(C)C)c(-c2ccc(Cl)cc2)n2c1CCC2 , thanks.
Response line: 25.2

Prompt line: Also need CCCCCCCCCCCCSC(=N)N , thanks.
Response line: 23

Prompt line: Also need COc1cc(CC2c3cc(OC)c(OC)cc3CCN2C)c(Oc2cc3c(cc2OC)-c2c(O)c(OC)cc4c2C(C3)N(C)CC4)cc1OC (stereo not given) , thanks.
Response line: 94.6

Prompt line: Also need C=CC1CC12C(=O)C1OC2(C)C2C(=O)c3c(O)ccc(O)c3C(=O)C12 (stereo not given) , thanks.
Response line: 15.3

Prompt line: Also need O=c1cc(-c2ccccc2)[nH]n1-c1nc2ccccc2[nH]1 , thanks.
Response line: 44.5

Prompt line: Also need COC(=O)C(Cc1ccc(O)cc1)NC(=O)C(CC(=O)OCc1ccccc1)NC(=O)OCc1ccccc1 (stereo not given) (Cbz-Asp(OBn)-Tyr-OMe; configuration not given here) , thanks.
Response line: 31.6
